The measurements presented in this section are drawn from PubChem BioAssay (NCI).

# Test system: HCC-2998 colon
# TEST DESCRIPTION: NCI-60 one-dose screen, 48 h (100 = growth as untreated, 0 = no growth, -100 = all killed)
# CONDITION SUMMARY: 10 µM unless noted
Compounds without any hit were thinned out: in the full panel of roughly 83,000, 20% have a hit.
RECORDED METRIC: growth (%)
# output: bare number, implied unit %

Before answering, review these 5 worked examples.
- MOLECULE: "O=C(Nc1cccc(Cl)c1)Nc1nc2ccc([N+](=O)[O-])cc2o1"
  VALUE: 24.3
- MOLECULE: "CCC(CC)N1C(=O)/C(=c2\\sc3n(c2=O)NC2C(N=3)N(CC)C(=O)N2CC)c2ccccc21 (centres undefined)"
  VALUE: 65.9
- MOLECULE: "NC(N)=Nc1ccc(Oc2ccc(Nc3ccc(Cl)c(C(F)(F)F)c3)cc2)cc1"
  VALUE: 1.24
- MOLECULE: "CCOC(=O)c1c(N)c(C#N)cn1-c1cc(OC)c(OC)c(OC)c1"
  VALUE: 115
- MOLECULE: "CC(=O)c1ccc(Nc2nc(SCC(C)C)nc(-c3ccc(F)cc3)c2C#N)cc1"
  VALUE: 119

So what does the record say about growth for CN1CCN(Cc2ccc(NC(=O)c3cncc(C#Cc4cnc5ccc(OCC(C)(C)O)nn45)c3)cc2C(F)(F)F)CC1 ?
-34.3

---

# Tested on: SK-OV-3 ovarian
# TEST DESCRIPTION: NCI-60 one-dose screen, 48 h (100 = growth as untreated, 0 = no growth, -100 = all killed)
# CONDITION SUMMARY: 10 µM unless noted
About 83,000 compounds went through this panel and 20% of them were active in at least one assay; those are over-represented in the sample as a whole.
# growth annotations
Kindly answer with a numeric value in %, unit omitted.

- MOLECULE: "CCCCCc1ccc(S(=O)(=O)Nc2cccc(-c3csc(NC(=O)CCCCCN4CCN(C)CC4)n3)c2)cc1"
  EXPERIMENTAL TARGET: "SK-OV-3 ovarian"
  OUTPUT UNIT: "%"
  VALUE: 97.9

I have this molecule here, Clc1cccc(/C=N/Nc2nc(N/N=C/c3cccc(Cl)c3Cl)nc(N3CCCCC3)n2)c1Cl , and I need its recorded growth.
105

Would you kindly share the measured growth for O=C(Nc1ccc2c(ccn2Cc2ccccn2)c1)c1ccnnc1 ?
105

Which measured growth value corresponds to CS(=O)(=O)c1ncc(-c2ccccc2)cn1 ?
108

State the recorded growth for this entry: Cc1ccc(-n2c(/C=C3\C(=O)Nc4ccccc43)ccc2CO)cc1
86.8

---

# Tested on: SF-539 CNS
# TEST DESCRIPTION: NCI-60 one-dose screen, 48 h
# CONDITION SUMMARY: 10 µM unless noted
About 83,000 compounds went through this panel and 20% of them were active in at least one assay; those are over-represented in the sample as a whole. Active and inactive are the calls of the source. How the source made its calls: active means growth percent below 10; inactive means the rest.
Respond only with the outcome that fits, drawn from t for active, f for inactive

- COMPOUND: "O=S(=O)(NC1c2ccccc2C[C@H]1O)c1ccc(Cl)cc1Cl (stereo not given in full)"
  ANSWER LABEL: "f"
- COMPOUND: "NC(N)=Nc1ccc(Oc2ccc(Nc3ccc(Cl)c(C(F)(F)F)c3)cc2)cc1"
  ANSWER LABEL: "f"
- COMPOUND: "COc1ccc2[nH]cc(/C=N/Nc3nc4ccccc4s3)c2c1"
  ANSWER LABEL: "f"
- COMPOUND: "C#CCNC1CCC(c2csc(C#C)n2)=C1C (stereo not given)"
  ANSWER LABEL: "t"

Returns: the outcome recorded for CC(C)(C)c1ccc(C(=O)Nc2nc3ccc(O)cc3s2)cc1 in this assay.
f

// outcome(item) with item = N/C(=N\C(N)=N\c1nc2ccccc2s1)c1ccc2ccccc2c1
f

Entry COC[C@]12CCC(C)(C)C[C@H]1C1=CC[C@@H]3[C@@]4(C)CCCNC(C)(C)[C@@H]4CC[C@@]3(C)[C@]1(C)CC2 : call = ?
t

What call does the record list for O=C(CN1CCN(c2cc(=O)n(-c3ccccc3)c3ccccc23)CC1)Nc1ccc(F)cc1 ?
f

# lookup: test call for O=C(Nc1nc2ccc([N+](=O)[O-])cc2s1)Nc1ccccc1Cl
f

# fetch the recorded call for COc1c(N2CC3CCCNC3C2)c(F)cc2c(=O)c(C(=O)N/N=C/c3ccc(N(C)C)cc3)cn(C3CC3)c12 (stereo not given) here
t

---

# Tested on: OVCAR-8 ovarian
# TEST DESCRIPTION: NCI-60 one-dose screen, 48 h
# CONDITION SUMMARY: 10 µM unless noted
This is part of a sample that, as a whole, favours compounds with a hit. Of some 83,000 tested, about 20% had one in any assay. The source made the active and inactive calls. The calls were made as follows: active = growth percent below 10; inactive = the rest.
Just give me one of these, please: True (active), False (inactive)

- COMPOUND: "COc1ccc2c(c1)c(CC(=O)[Se]CC#N)c(C)n2C(=O)c1ccc(Cl)cc1"
  EXPERIMENTAL TARGET: "OVCAR-8 ovarian"
  ANSWER LABEL: "True"
- COMPOUND: "O=C(Cn1c(-c2ccccc2)nc2cc(Cl)c(Cl)cc21)N=Nc1c(O)[nH]c2ccc(Cl)cc12"
  EXPERIMENTAL TARGET: "OVCAR-8 ovarian"
  ANSWER LABEL: "False"
- COMPOUND: "Cc1cc(-c2ccc(Cl)cc2)n(Cc2nnc(SCC(=O)Nc3ccc(S(N)(=O)=O)cc3)n2C2CCCCC2)n1"
  EXPERIMENTAL TARGET: "OVCAR-8 ovarian"
  ANSWER LABEL: "False"
- COMPOUND: "CCCCc1nc(/C=N/Nc2nc(Nc3ccccc3)nc(Nc3ccc(S(N)(=O)=O)cc3)n2)c(Cl)[nH]1"
  EXPERIMENTAL TARGET: "OVCAR-8 ovarian"
  ANSWER LABEL: "False"
- COMPOUND: "CCN(CC)c1ccc2c(c1)Oc1nc(N)c(C#N)c(N)c1C2Sc1ccc(C)cc1 (centres undefined)"
  EXPERIMENTAL TARGET: "OVCAR-8 ovarian"
  ANSWER LABEL: "True"
- COMPOUND: "O=C(Cn1cc(-c2ccccc2)nn1)Nc1nc(-c2ccc(Cl)cc2)cs1"
  EXPERIMENTAL TARGET: "OVCAR-8 ovarian"
  ANSWER LABEL: "False"
- COMPOUND: "CCn1c(SCC(=O)Nc2cccc(C(=O)/C=C/c3cc(OC)c(OC)c(OC)c3)c2)nc2ccccc2c1=O"
  EXPERIMENTAL TARGET: "OVCAR-8 ovarian"
  ANSWER LABEL: "False"
- COMPOUND: "O=C(CCn1c[n+](CC(=O)c2ccc(F)cc2)c2ccccc21)Nc1cccc2cccnc12"
  EXPERIMENTAL TARGET: "OVCAR-8 ovarian"
  ANSWER LABEL: "False"

What is the recorded call for this compound in the test? Cn1ccnc1C(=O)/C=C/c1ccc(CNC(=O)c2c(F)c(F)c(F)c(F)c2F)cc1
False

Record lookup: outcome of this test for CCN(CC)c1cn(-c2ccc(S(N)(=O)=O)cc2)nn1 ?
False

// param item: O=C(CN1CCN(c2cc(=O)n(-c3ccccc3)c3ccccc23)CC1)Nc1cccc(C(F)(F)F)c1 ; yields the recorded call
False

Assay result, entry CNC(=O)c1cc(-c2ccc(NC(=S)Nc3cc(C(F)(F)F)cc(C(F)(F)F)c3)cc2)nc2cccnc12 — outcome?
False

Please share the test call associated with Cc1ccc(-c2nn(-c3ccccc3)cc2/C=C/C(=O)c2ccc(NC(=O)CCCCCCC(=O)NO)cc2)cc1 .
False

GET /call?item= N=c1c2cc(-c3ccccc3)oc2ncn1/N=C/c1ccc(Br)cc1 returns the recorded outcome of this test.
False

What call does the record list for COc1ccccc1-n1cc(C#N)c(N)c1C(=O)c1ccc(Br)cc1 ?
False

Write down the call the test reported for this compound. Item: O=C(CSc1nc2ccccc2c(=O)n1-c1ccccc1)Nc1cccc(C(=O)/C=C/c2ccccc2)c1
False

---

# System: SW-620 colon
# TEST DESCRIPTION: NCI-60 one-dose screen, 48 h
# CONDITION SUMMARY: 10 µM unless noted
# Description: Growth inhibition of the SW-620 human tumor cell line is measured as a screen for anti-cancer activity. Cells are grown in 96 well plates and exposed to the test compound for 48 hours. Compounds are tested at a single concentration, which is 10^-5 M for most compounds. The reported endpoint is percent growth (GI% or GIPRCNT), where numbers from 0 - 100% represent growth inhibition, and numbers from -100% - 0 represent cell death. For example, a value of 40 represents 60% growth inhibition. […]
The panel holds about 83,000 compounds, 20% with a hit somewhere; the sample as a whole holds those more often. Calls of active or inactive are those of the source. Rule for the calls: active = growth percent below 10; inactive = the rest.
// allowed return values: y for active, n for inactive

Given COc1ccc(NC(=O)CSc2nnc(-c3ccc4nc(-c5ccc(OC)c(OC)c5)[nH]c4c3)o2)cc1OC , state the outcome it received in this test.
n

Would you mind telling me which call this test gave Cc1ccc(NC(=S)NNC(=S)Nc2ccc(C)cc2)cc1 ?
n

So what was the verdict on Cc1ccc(C(=O)NN2C(=O)/C(=C/C=C/c3ccco3)SC2=S)cc1 in this test?
n

Each molecule tested received a call. Report the one for COc1cc(Nc2c(C#N)cnn3cc(-c4cnn(CC(C)(C)O)c4)cc23)ccc1Cl .
n

For CCCn1cnc2c(c1=N)C(c1ccc(OC)cc1)c1sc3c(C)cccc3c1O2 (centres undefined) , which call appears in the assay record?
n

Recorded test outcome, item Cn1ccnc1C(=O)/C=C/c1ccc(CNC(=O)c2ccc(F)cc2)cc1
y

How was CC(C)(C)c1ccc(CC(=O)Nc2sc3c(c2C(N)=O)CCC(=O)C3)cc1 classified in this test?
y

Which outcome was assigned to COc1cc(OC)c(S(N)(=O)=O)cc1C(=O)/C=C/c1ccc(C)cc1 in this test?
y

Recorded test call requested for C=CCn1c(SCC(=O)Nc2ccc(C(=O)/C=C/c3cccc([N+](=O)[O-])c3)cc2)nnc1-c1c[nH]c2ccccc12
n

For this molecule, state the assay outcome: O=C(CNc1nc(-c2cccc([N+](=O)[O-])c2)cs1)Nc1cccc([N+](=O)[O-])c1
y
